- Organism: Rattus norvegicus
- Assay Protocol: Compound was tested in vitro for inhibitory activity against lipid peroxidation after 30 minutes
- Format: functional
- Condition Label: 0.5 h
Measurement Type: pIC50
Quick note: pIC50 means taking -log10 of the concentration in moles per liter.

Solved cases below.
Chemical String: CC(=O)Oc1c(-c2ccccc2)c(-c2ccccc2)n2cc(C(C)=O)ccc12
Quantitative Result: 5.46
//
Chemical String: CC(=O)Oc1c(-c2ccccc2)c(-c2ccccc2)n2ccc(C=O)cc12
Quantitative Result: 5.54
//
Chemical String: CC(=O)Oc1c(-c2ccccc2)c(-c2ccccc2)n2ncccc12
Quantitative Result: 5.51
//
Chemical String: CC(=O)Oc1c(-c2ccccc2)c(-c2ccccc2)n2ccc(C(=O)c3ccccc3)cc12
Quantitative Result: 5.60
//
Chemical String: CC(=O)Oc1c(-c2ccccc2)c(-c2ccccc2)n2ccccc12
Quantitative Result: 4.93

Task: Which pIC50 reading was recorded for the compound "O=Cc1ccn2c(-c3ccccc3)c(-c3ccccc3)c(OC(=O)Nc3ccccc3)c2c1" ?
Result: 5.49

Task: Return reported pIC50; argument: "COC(=O)Oc1c(-c2ccccc2)c(-c2ccccc2)n2ccc(C=O)cc12"
Result: 5.59

Task: Quick one: pIC50 for "COc1c(-c2ccccc2)c(-c2ccccc2)n2ccc(C=O)cc12" ?
Result: 5.38

Task: GET /values?readout=pIC50&item= "CC(=O)Oc1c(-c2ccccc2)c(-c2ccccc2)n2ccc(C(C)=O)cc12"
Result: 5.28

Values were extracted from ChEMBL document CHEMBL1131390.
